assay: Displacement of 3[H]Flunitrazepam from GABA-A central benzodiazepine receptor of bovine brain membranes; type: cell membranes, Bos taurus
property_label: IC50 (nM)

Cn1c(=O)c2c(-c3ccccc3)nn(-c3cccc(Br)c3)c2c2ccccc21 : 100
Cn1c(=O)c2c(-c3ccccc3)nn(-c3cccc(Cl)c3)c2c2ccccc21 : 70
Cc1cccc(-n2nc(-c3ccccc3)c3c(=O)n(C)c4ccccc4c32)c1 : 90
